Data provenance is paper PMC9482650.

target: SCRIB_3, Q14160; assay: holdup assay; parameters: key: below the threshold = too weak to quantify, mostly under pKd 3.1 to 4; settings: plain residues with an end cap or a label only (N-terminal biotin on a linker: ado-ado)
Sequence (Q14160 999-1103): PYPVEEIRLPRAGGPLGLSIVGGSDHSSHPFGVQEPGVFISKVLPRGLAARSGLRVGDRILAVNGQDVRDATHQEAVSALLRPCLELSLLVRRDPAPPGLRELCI
Kindly return rule met if reported pKd is no lower than 4; return rule not met if it is lower.

Field: example entries. Status: answers known.
> print(dat)
                                 binder   group.label
1            QMNQTLPVQV [EPHB3, P54753]  rule not met
2            PPYRHRNTVV [ERBB4, Q15303]  rule not met
3  YLEPVLSSEL [ATP2A2, P16615;P16615-3]      rule met

Problem: Could you verify whether the entry PDGQCTVTEV [RNF146, Q9NTX7] shows pKd of no less than 4?
Solution: rule met
